# Test system: Bacillus subtilis
# ASSAY PROCEDURE: Antibacterial activity against Bacillus subtilis ATCC 6633 after 24 hrs by broth dilution method
# Assay type: functional
# STATED CONDITIONS: ATCC 6633, 24 h

STRUCTURE AS SMILES: CC(=O)N[C@@H](CCCN)CC(=O)N[C@@H]1[C@H](O)[C@@H](O)[C@@H](COC(N)=O)O[C@H]1/N=C1\N[C@H]([C@H](O)CN)[C@@H](C(=O)O)N1
MIC: > 128 µg/mL
--
STRUCTURE AS SMILES: NCCC[C@H](N)CC(=O)NCCC[C@H](N)CC(=O)N[C@@H]1[C@H](O)[C@@H](OC(N)=O)[C@@H](CO)O[C@H]1NC1=N[C@@H]2C(=O)NC[C@@H](O)[C@H]2N1
MIC: 1 µg/mL
--
STRUCTURE AS SMILES: CC(=O)N[C@@H](CCCN)CC(=O)N[C@@H]1[C@H](O)[C@@H](O)[C@@H](COC(N)=O)O[C@H]1/N=C1\N[C@@H]2[C@H](O)CNC(=O)[C@@H]2N1
MIC: > 128 µg/mL
--
STRUCTURE AS SMILES: CC(=O)N[C@@H](CCCN)CC(=O)N[C@@H]1[C@H](O)[C@@H](O)[C@@H](COC(N)=O)O[C@H]1/N=C1\N[C@@H]2[C@H](O)CNC(=O)[C@H]2N1
MIC: > 128 µg/mL
--
STRUCTURE AS SMILES: CC(=O)N[C@@H](CCCNC(=O)C[C@@H](N)CCCN)CC(=O)N[C@@H]1[C@H](O)[C@@H](OC(N)=O)[C@@H](CO)O[C@H]1/N=C1\N[C@@H]2[C@H](O)CNC(=O)[C@H]2N1
MIC: > 128 µg/mL
--
STRUCTURE AS SMILES: CC(=O)N[C@@H](CCCN)CC(=O)N[C@@H]1[C@H](O)[C@@H](O)[C@@H](COC(N)=O)O[C@@H]1/N=C1\N[C@@H]2[C@H](O)CNC(=O)[C@H]2N1
MIC: > 128 µg/mL
--
STRUCTURE AS SMILES: C[C@H]1COc2c(N3CCN(C)CC3)c(F)cc3c(=O)c(C(=O)O)cn1c23.C[C@H]1COc2c(N3CCN(C)CC3)c(F)cc3c(=O)c(C(=O)O)cn1c23.O
MIC: 0.12 µg/mL
--
STRUCTURE AS SMILES: NCCC[C@H](N)CC(=O)NCCC[C@H](N)CC(=O)N[C@@H]1[C@H](O)[C@@H](O)[C@@H](COC(N)=O)O[C@H]1/N=C1\N[C@@H]2[C@H](O)CNC(=O)[C@H]2N1
MIC: 16 µg/mL
--
STRUCTURE AS SMILES: CC(=O)N[C@@H](CCCNC(=O)C[C@@H](N)CCCNC(=O)C[C@@H](N)CCCN)CC(=O)N[C@@H]1[C@H](O)[C@@H](OC(N)=O)[C@@H](CO)O[C@H]1NC1=N[C@@H]2C(=O)NC[C@@H](O)[C@H]2N1
MIC: > 128 µg/mL

###

Parameter: MIC. Scope: all listed entries.
# System: Mycobacterium tuberculosis
# ASSAY PROCEDURE: Antibacterial activity against Mycobacterium tuberculosis H37Rv after 14 days by broth dilution method
# Format: functional
# STATED CONDITIONS: 336 h

STRUCTURE AS SMILES: CC(=O)N[C@@H](CCCNC(=O)C[C@@H](N)CCCN)CC(=O)N[C@@H]1[C@H](O)[C@@H](OC(N)=O)[C@@H](CO)O[C@H]1/N=C1\N[C@@H]2[C@H](O)CNC(=O)[C@H]2N1
MIC: > 128 µg/mL
//
STRUCTURE AS SMILES: NCCC[C@H](N)CC(=O)NCCC[C@H](N)CC(=O)N[C@@H]1[C@H](O)[C@@H](OC(N)=O)[C@@H](CO)O[C@H]1NC1=N[C@@H]2C(=O)NC[C@@H](O)[C@H]2N1
MIC: 16 µg/mL
//
STRUCTURE AS SMILES: CC(=O)N[C@@H](CCCNC(=O)C[C@@H](N)CCCNC(=O)C[C@@H](N)CCCN)CC(=O)N[C@@H]1[C@H](O)[C@@H](OC(N)=O)[C@@H](CO)O[C@H]1NC1=N[C@@H]2C(=O)NC[C@@H](O)[C@H]2N1
MIC: > 128 µg/mL
//
STRUCTURE AS SMILES: CC(=O)N[C@@H](CCCN)CC(=O)N[C@@H]1[C@H](O)[C@@H](O)[C@@H](COC(N)=O)O[C@H]1/N=C1\N[C@@H]2[C@H](O)CNC(=O)[C@@H]2N1
MIC: > 128 µg/mL
//
STRUCTURE AS SMILES: CC(=O)N[C@@H](CCCN)CC(=O)N[C@@H]1[C@H](O)[C@@H](O)[C@@H](COC(N)=O)O[C@H]1/N=C1\N[C@H]([C@H](O)CN)[C@@H](C(=O)O)N1
MIC: > 128 µg/mL

###

# System: Mycobacterium tuberculosis
# ASSAY PROCEDURE: Antibacterial activity against Mycobacterium tuberculosis H37Rv after 14 days by broth dilution method
# Type: functional
# STATED CONDITIONS: 336 h
Parameter: MIC. Scope: all listed entries.

STRUCTURE AS SMILES: CC(=O)N[C@@H](CCCN)CC(=O)N[C@@H]1[C@H](O)[C@@H](O)[C@@H](COC(N)=O)O[C@H]1/N=C1\N[C@@H]2[C@H](O)CNC(=O)[C@H]2N1
MIC: > 128 µg/mL

STRUCTURE AS SMILES: C[C@H]1COc2c(N3CCN(C)CC3)c(F)cc3c(=O)c(C(=O)O)cn1c23.C[C@H]1COc2c(N3CCN(C)CC3)c(F)cc3c(=O)c(C(=O)O)cn1c23.O
MIC: 0.5 µg/mL

STRUCTURE AS SMILES: NCCC[C@H](N)CC(=O)NCCC[C@H](N)CC(=O)N[C@@H]1[C@H](O)[C@@H](O)[C@@H](COC(N)=O)O[C@H]1/N=C1\N[C@@H]2[C@H](O)CNC(=O)[C@H]2N1
MIC: > 128 µg/mL

STRUCTURE AS SMILES: CC(=O)N[C@@H](CCCN)CC(=O)N[C@@H]1[C@H](O)[C@@H](O)[C@@H](COC(N)=O)O[C@@H]1/N=C1\N[C@@H]2[C@H](O)CNC(=O)[C@H]2N1
MIC: > 128 µg/mL

###

Parameter: MIC. Scope: all listed entries.
# Tested on: Staphylococcus aureus
# ASSAY PROCEDURE: Antibacterial activity against Staphylococcus aureus ATCC 25923 after 24 hrs by broth dilution method
# Format: functional
# STATED CONDITIONS: ATCC 25923, 24 h
TEST READOUT: MIC

COMPOUND: NCCC[C@H](N)CC(=O)NCCC[C@H](N)CC(=O)N[C@@H]1[C@H](O)[C@@H](O)[C@@H](COC(N)=O)O[C@H]1/N=C1\N[C@@H]2[C@H](O)CNC(=O)[C@H]2N1
RESULT: > 128 µg/mL
--
COMPOUND: CC(=O)N[C@@H](CCCN)CC(=O)N[C@@H]1[C@H](O)[C@@H](O)[C@@H](COC(N)=O)O[C@H]1/N=C1\N[C@@H]2[C@H](O)CNC(=O)[C@H]2N1
RESULT: > 128 µg/mL
--
COMPOUND: CC(=O)N[C@@H](CCCNC(=O)C[C@@H](N)CCCN)CC(=O)N[C@@H]1[C@H](O)[C@@H](OC(N)=O)[C@@H](CO)O[C@H]1/N=C1\N[C@@H]2[C@H](O)CNC(=O)[C@H]2N1
RESULT: > 128 µg/mL
--
COMPOUND: C[C@H]1COc2c(N3CCN(C)CC3)c(F)cc3c(=O)c(C(=O)O)cn1c23.C[C@H]1COc2c(N3CCN(C)CC3)c(F)cc3c(=O)c(C(=O)O)cn1c23.O [LEVOFLOXACIN]
RESULT: 0.12 µg/mL
--
COMPOUND: CC(=O)N[C@@H](CCCN)CC(=O)N[C@@H]1[C@H](O)[C@@H](O)[C@@H](COC(N)=O)O[C@@H]1/N=C1\N[C@@H]2[C@H](O)CNC(=O)[C@H]2N1
RESULT: > 128 µg/mL
--
COMPOUND: NCCC[C@H](N)CC(=O)NCCC[C@H](N)CC(=O)N[C@@H]1[C@H](O)[C@@H](OC(N)=O)[C@@H](CO)O[C@H]1NC1=N[C@@H]2C(=O)NC[C@@H](O)[C@H]2N1 [STREPTOTHRICIN E]
RESULT: 4 µg/mL
--
COMPOUND: CC(=O)N[C@@H](CCCNC(=O)C[C@@H](N)CCCNC(=O)C[C@@H](N)CCCN)CC(=O)N[C@@H]1[C@H](O)[C@@H](OC(N)=O)[C@@H](CO)O[C@H]1NC1=N[C@@H]2C(=O)NC[C@@H](O)[C@H]2N1
RESULT: > 128 µg/mL
--
COMPOUND: CC(=O)N[C@@H](CCCN)CC(=O)N[C@@H]1[C@H](O)[C@@H](O)[C@@H](COC(N)=O)O[C@H]1/N=C1\N[C@H]([C@H](O)CN)[C@@H](C(=O)O)N1
RESULT: > 128 µg/mL
--
COMPOUND: CC(=O)N[C@@H](CCCN)CC(=O)N[C@@H]1[C@H](O)[C@@H](O)[C@@H](COC(N)=O)O[C@H]1/N=C1\N[C@@H]2[C@H](O)CNC(=O)[C@@H]2N1
RESULT: > 128 µg/mL
